Origin of values: the supplement of paper PMC11616607

Reported drug sensitivity score by item:
System: OV90
test-details: drug sensitivity score (DSS) from 5-point dose-response viability curve (DSS (area-under-curve based score)); higher = more sensitive (stronger growth inhibition or killing); extreme values may be limits of the assay
particulars: exposure time: 72 h; concentration range: 5 concentrations over 10,000-fold range
endpoint-name: drug sensitivity score

smiles-representation	endpoint-name	test-result
Cn1c(Nc2ccc(C(F)(F)F)cc2)nc2cc(Oc3ccnc(-c4ncc(C(F)(F)F)[nH]4)c3)ccc21	drug sensitivity score	4.2
CN1CC[C@H](c2c(O)cc(O)c3c(=O)cc(-c4ccccc4Cl)oc23)[C@H](O)C1	drug sensitivity score	14.7
CONC(=O)c1ccccc1Nc1cc(Nc2cc(C)nn2C(C)C)ncc1Cl	drug sensitivity score	0
COc1cc(Nc2c(C#N)cnc3cc(OCCCN4CCN(C)CC4)c(OC)cc23)c(Cl)cc1Cl	drug sensitivity score	8.7
CN(C)C[C@@H]1CCn2cc(c3ccccc32)C2=C(C(=O)NC2=O)c2cn(c3ccccc23)CCO1	drug sensitivity score	6.4
NC(=O)N1CCC(CC(=O)N2CCC([C@H]3c4ncc(Br)cc4CCc4cc(Cl)cc(Br)c43)CC2)CC1	drug sensitivity score	15.8
CO[C@@H]1[C@H](N(C)C(=O)c2ccccc2)C[C@H]2O[C@]1(C)n1c3ccccc3c3c4c(c5c6ccccc6n2c5c31)C(=O)NC4	drug sensitivity score	12.7
Cc1cc2c(F)c(Oc3ncnn4cc(OC[C@@H](C)O)c(C)c34)ccc2[nH]1	drug sensitivity score	0
Cc1c(-c2c(-c3ccc(F)o3)sc3ncnc(O[C@H](Cc4ccccc4OCc4ccnn4CC(F)(F)F)C(=O)O)c23)ccc(OCCN2CCN(C)CC2)c1Cl	drug sensitivity score	0.1
Cc1cc(-c2nc(-c3ccc(OC(F)(F)F)cc3)no2)nn1Cc1ccnc(N2CCN(C3CC3)CC2)c1	drug sensitivity score	23.3
CC(=O)Nc1ccc(C(=O)Nc2ccccc2N)cc1	drug sensitivity score	1.1
CCC1=C[C@@H]2CN(C1)Cc1c([nH]c3ccccc13)[C@@](C(=O)OC)(c1cc3c(cc1OC)N(C)[C@H]1[C@@](O)(C(=O)OC)[C@H](OC(C)=O)[C@]4(CC)C=CCN5CC[C@]31[C@@H]54)C2	drug sensitivity score	26.5
Cc1nc(Nc2n[nH]c3c2CN(C(=O)N[C@H](CN(C)C)c2ccccc2)C3(C)C)c2sccc2n1	drug sensitivity score	17
Nc1ncn([C@@H]2O[C@H](CO)[C@@H](O)[C@H]2O)c(=O)n1	drug sensitivity score	3.8
Nc1cc(F)ccc1NC(=O)/C=C/c1cnn(C/C=C/c2ccccc2)c1	drug sensitivity score	1.9
